system: SN12C; assay: NCI tumour cell line growth inhibition, 48 h
The source made the active and inactive calls. No stated cut-off is given here; in the data, active = GI50 up to about 1.1 µM and inactive = higher.
# GI50 per entry

[
  {
    "molecule": "O=C(Nc1ccccn1)c1cc2c(cc1Cl)Sc1nccn1S2(=O)=O",
    "GI50": "36.6 µM (inactive)"
  },
  {
    "molecule": "CCOC(=O)n1cncc1CC(NC(=O)Cc1c(C(=O)C=C(C)C)[nH]c2ccccc12)C(=O)OC (centres undefined)",
    "GI50": "16.3 µM (inactive)"
  },
  {
    "molecule": "O=C1c2ccncc2C(=O)c2c(O)ccc(O)c21",
    "GI50": "4.73 µM (inactive)"
  },
  {
    "molecule": "CC12c3c4ccc(C=O)c3Oc3ccc(C=O)c(c31)Oc1ccc(C=O)c(c12)O4",
    "GI50": "> 25 µM (inactive)"
  }
]
